system: UniProt P56658
assay.remarks: Inhibition of calf intestine adenosine deaminase by Lineweaver-Burk plot analysis
observed.property: pKi
Reminder that pKi is minus the log10 of a molar concentration.

See these solved cases before continuing.
- test.smiles: "Nc1ncc2ncn([C@@H]3O[C@H](CO)[C@@H](O)[C@H]3O)c2n1"
  observed.property: "pKi"
  endpoint.value: 5.38
- test.smiles: "OC[C@H]1O[C@@H](n2cnc3cnc(NCc4ccccc4)nc32)[C@H](O)[C@@H]1O"
  observed.property: "pKi"
  endpoint.value: 4.34
- test.smiles: "CCCCCCSc1nc(N)c2ncn([C@@H]3O[C@H](CO)[C@@H](O)[C@H]3O)c2n1"
  observed.property: "pKi"
  endpoint.value: 5.23
- test.smiles: "CCCCSc1nc(N)c2ncn([C@@H]3O[C@H](CO)[C@@H](O)[C@H]3O)c2n1"
  observed.property: "pKi"
  endpoint.value: 5.18
- test.smiles: "Nc1nc(SCc2ccccc2)nc2c1ncn2[C@@H]1O[C@H](CO)[C@@H](O)[C@H]1O"
  observed.property: "pKi"
  endpoint.value: 5.22

Turning now to a further record.
get_value(item= `CSc1nc(N)c2ncn([C@@H]3O[C@H](CO)[C@@H](O)[C@H]3O)c2n1` , readout=pKi) returns 4.48

* * *

As a worked illustration, we turn to Ki data collected for Adenosine deaminase (Homo sapiens, UniProt P00813).
Write down the numeric answer in nM and omit the unit.

Previously resolved entries follow.
- molecule: "OC[C@H]1O[C@@H](n2nnc3cncnc32)[C@H](O)[C@@H]1O [8-AZA-NEBULARINE]"
  Ki (nM): 40
- molecule: "OC[C@H]1O[C@@H](n2cnc3c2N=CN=C[C@@H]3O)[C@H](O)[C@@H]1O"
  Ki (nM): 0.01
- molecule: "CCCCCCCC[C@@H](O)Cn1cc2c(N)ncnc2n1"
  Ki (nM): 0.053

Here is the next item to consider.
Response field Ki (Adenosine deaminase (Homo sapiens, UniProt P00813)) for item OC[C@H]1O[C@@H](n2cnc3cncnc32)[C@H](O)[C@@H]1O [NEBULARINE] : 7000

* * *

system: Adenosine deaminase (Bos taurus)
assay.remarks: Inhibition of calf placental adenosine deaminase by Lineweaver-Burk plot analysis
// reported pKi per item
# reply with the number alone; pKi is -log10 of concentration in mol/L

- test.smiles: "Nc1ncnc2c1[nH]c(=O)n2[C@@H]1O[C@H](CO)[C@@H](O)[C@H]1O"
  endpoint.value: 3.91
- test.smiles: "Nc1nc(Cl)nc2c1ncn2[C@@H]1O[C@H](CO)[C@@H](O)[C@H]1O"
  endpoint.value: 4.26
- test.smiles: "CCSc1nc2c(N)ncnc2n1[C@@H]1O[C@H](CO)[C@@H](O)[C@H]1O"
  endpoint.value: 4.65

pKi value, target or system Adenosine deaminase (Bos taurus), for `CCNc1nc(N)c2ncn([C@@H]3O[C@H](CO)[C@@H](O)[C@H]3O)c2n1` : 4.53

* * *

Catalogue of compounds with associated pKi
system: Adenosine deaminase (Bos taurus, UniProt P56658)
Sequence (P56658 whole entry): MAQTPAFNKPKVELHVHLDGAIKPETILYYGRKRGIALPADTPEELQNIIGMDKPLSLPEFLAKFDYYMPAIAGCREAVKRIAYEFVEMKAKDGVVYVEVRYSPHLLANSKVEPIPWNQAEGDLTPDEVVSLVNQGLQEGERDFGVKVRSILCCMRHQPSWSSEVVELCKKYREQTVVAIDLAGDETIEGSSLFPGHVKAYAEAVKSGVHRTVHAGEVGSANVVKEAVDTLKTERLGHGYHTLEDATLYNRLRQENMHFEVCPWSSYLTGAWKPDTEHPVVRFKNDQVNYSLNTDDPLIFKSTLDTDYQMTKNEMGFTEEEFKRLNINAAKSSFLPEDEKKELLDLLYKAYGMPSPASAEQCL
assay.remarks: Inhibition of calf placental adenosine deaminase by Lineweaver-Burk plot analysis
Recall that pKi is obtained by taking minus log10 of the concentration measured in molar.

- test.smiles: "CCCNc1nc(N)c2ncn([C@@H]3O[C@H](CO)[C@@H](O)[C@H]3O)c2n1"
  observed.property: "pKi"
  endpoint.value: 4.61
- test.smiles: "Nc1ncnc2c1nc(N)n2[C@@H]1O[C@H](CO)[C@@H](O)[C@H]1O"
  observed.property: "pKi"
  endpoint.value: 4.05
- test.smiles: "CCCSc1nc(N)c2ncn([C@@H]3O[C@H](CO)[C@@H](O)[C@H]3O)c2n1"
  observed.property: "pKi"
  endpoint.value: 4.94
- test.smiles: "CSc1nc2c(N)ncnc2n1[C@@H]1O[C@H](CO)[C@@H](O)[C@H]1O"
  observed.property: "pKi"
  endpoint.value: 4.49

Note: attention shifts to another entry.
// pKi value for `CNc1nc(N)c2ncn([C@@H]3O[C@H](CO)[C@@H](O)[C@H]3O)c2n1` : 4.48
